- MEASUREMENT_DESCRIPTION: Competitive microarray selectivity screening with α-2,8/9-PSA
- Type: binding, Escherichia coli
- EXPERIMENTAL_CONTEXT: binding to 10 μM α-2,8-PSA (CA) with 10% competing α-2,8/9-PSA; ± SD of triplicate intra-assay measurements; SD
Recorded % selectivity, one value per entry.
Please state the figure in %; there is no need to write the unit.

Use the examples below as a reference point.
INSERT INTO measurements (ordered_residues, property_label, experimental_result) VALUES
  ('AALSPRRTRPSTSHF [I-P85]', '% selectivity', 59),
  ('GGKGGGKGGGKGGGK [I-P380, de novo peptide composed of lysine and glycine residues]', '% selectivity', 56),
  ('KIHTGQPLRGPGFGL [I-P323]', '% selectivity', 86),
  ('FRVKICRKEARKRAA [I-P278]', '% selectivity', 43),
  ('KGGGKGGGKGGGKGG [I-P379, de novo peptide composed of lysine and glycine residues]', '% selectivity', 61);

Recorded % selectivity for TLPAILQASGTRGGGS [II-P145, phage display screening peptide with S8A mutation] , please?
81

Okay, and RKGVSAQRTVRLRVA [I-P104] ?
45

Okay, and VDFSRKGVSAQRTVR [I-P102] ?
59

Okay, and KGKGKGKGKGKGKGK [I-P378, de novo designed peptide with alternating Lys and Gly residues] ?
60

Okay, and QELHYASLSFQGLRL [I-P307] ?
80

Okay, and VKICRKEARKRAAAE [I-P279] ?
46

====

- MEASUREMENT_DESCRIPTION: Competitive microarray selectivity screening with α-2,8/9-PSA
- Type: binding, Escherichia coli
- EXPERIMENTAL_CONTEXT: binding to 10 μM α-2,8-PSA (CA) with 10% competing α-2,8/9-PSA; ± SD of triplicate intra-assay measurements; SD
Give Met when the value for % selectivity is at least 70%. Give Not met when it is less.

The following sequences have reported results that may help.
INSERT INTO results (ordered_residues, class_name) VALUES
  ('LKVTALTKKPDVYIP [I-P62]', 'Not met'),
  ('GRTSAKTGAPVATNN [I-P344, Siglec-11-derived peptide with P5A mutation]', 'Met'),
  ('WFKGKTSPKTGAPVA [I-P333, Siglec-11-derived peptide with R5K mutation]', 'Not met'),
  ('WGPRTLGLELRGVRA [I-P143]', 'Not met'),
  ('AISSPLLRNPFRGGGS [II-P213, phage display screening peptide with W8R mutation]', 'Not met');

Is reported % selectivity greater than or equal to 70% here: YSEIKIHTGQPLRGP [I-P321]
Met

Okay, and LSPRRTRPSTSHFSV [I-P86] ?
Not met

Okay, and GRTSPKAGAPVATNN [I-P346, Siglec-11-derived peptide with T7A mutation] ?
Met

Okay, and YWFKGRTSPKTGAPV [I-P23] ?
Not met

====

Recorded % selectivity, one value per entry.
- MEASUREMENT_DESCRIPTION: Competitive microarray selectivity screening with α-2,8/9-PSA
- Assay type: binding, Escherichia coli
- EXPERIMENTAL_CONTEXT: binding to 10 μM α-2,8-PSA (CA) with 10% competing α-2,8/9-PSA; ± SD of triplicate intra-assay measurements; SD
Please state the figure in %; there is no need to write the unit.

Use the examples below as a reference point.
INSERT INTO measurements (ordered_residues, experimental_result) VALUES
  ('WFKGRTSPKTGAPVA [I-P330, Siglec-11-derived peptide]', 35),
  ('PGSGNTKYNEKFKGK [II-P77, peptide designed from mAb735]', 49),
  ('FSRKGVSAQRTVRLR [I-P103]', 55),
  ('GSGSGTDFTLKISRV [II-P35, peptide designed from mAb735]', 53);

Kindly consider the entry below.
Recorded % selectivity for LSNAFFLKVTALTKK [I-P59] , please?
52
